Biological target: pooled human IgG (human IgG1, 2, 3 and 4)
Reported Metric: Enzyme Activity Endpoint Assay: Fc (ng/µL)
Numbers only, in ng/µL.

protein="PRT-247 (protein) MVTSVWTKGVTPPANFTQGEDVFHAPYVANQGWYDITKLFNGKDDLLCGAATAGNMLHWWFDQNKDQIKRYLEEHPEKQKINFNGEQMFDVKEAIDTKNHQLDSKLFEYFLEKAFPYLSTKHLGVFPDHVIDMFINGYRLSLTNHGPTPVKEGSKDPRGGIFDAVFTRGDQSKLLTSRHDFKEKNLKEISDLIKKELTEGKALGLSHTYANVRINHVINLWGADFDSNGNLKAIAVTDSDSNASIGMKKYFVGVNSSGKVAISAKEIKEDNIGAQVLGLFTLSTGQDSWNQTN" value_reported=81
protein="PRT-693 (protein) MQITSVWTKGVIPPTPEQFRYNNEDVIHAPYLPNQGWYDITKTFNGGDNLLCGAATAGNMLHWWFDQNKTEIEAYLSKYPEKQKIIFNNQELFDLRAAINTKDSQTNSQLFNYFRDKAFPNLSARQLGVMPDLVLDMFINGYYLNVFKTQSTDVNRPYQDRDKRGGIFDHVFGRGDQTTLLTARHDLKNGTLNDISTLIKQELQSGKALALSHTYANVSISHVINLWGADFNAEGNLEAIYVTDSDANSSIGMKKYYVGVNAHGKVAISAKKIEGENIGAQVLGLFTLSSGKEIWQKLSLEHHHHHH" value_reported=436

Dear colleague, could you send me Enzyme Activity Endpoint Assay: Fc for each of the items below? Thanks.
1. PRT-453 (protein) MVTSVWTKGVTPPANFTQGEDVFHAPYKANQGWYDITKTFNGKDDLLCGAATAGNMLHWWFDQNKDQIEAYLKEHPEKQKINFNGEQMFDVKEAIDTKDDQTNSKLFEYFKEKAFPYLSTKHLGVFPDHVLDMFINGYRLSLTNHGPTPVKEGSKDPRGGIFDAVFTRGDQSKLLTSRHDLKNKTLKEISDLIKQELTEGKALALSHTYANVRINHVINLWGADFDSNGNLEAIYVTDSDSNASIGMKKYFVGVNSAGKVAISAKEIEDDNIGAQVLGLFTLSTGQDIWNQTNLEHHHHHH
2. PRT-553 (protein) MANQEIRYSEETPKTITSIWTKGVTPPTDFIKNEDVLHAPYVANQGWYDITKTFNGKDDLLCGAATAGNMLHWWFDQNKEEIENYLKKHPEKQKINFNGEQMFDVKEAIDTKDSQTDSKLFEYFKDKAFPYLSTKHLGVFPDHVIDMFINGYRLSLTNHGPTPVKRGTKDPRGGIFDAVFTRGDQTKLLTERHDFKEKTLNEISDLIKQELTEGKALGLSHTYANVRINHVINLWGADFNSEGNLEAIYVTDSDSNASIGMKKYYVGVNAAGKVAISAKEIEDDNIGAQVLGLFTLSTGKDIWEQTNLEHHHHHH
3. PRT-614 (protein) MQITSVWTKGVKPLTPEQFRYNNEDVIHAPYLAHQGWYDITKAFDGKDNLLCGAATAGNMLHWWFDQNKTEIEAYLSKHPEKQKIIFNNQELFDLRAAIDTKDSQTNSQLFNYFRDKAFPNLSARQLGVMPDLVLDMFINGYYLNVFKTQSTDVNRPYQDKDKRGGIFDDVFTRGDQTTLLTARHDLKNGGLNDISTIIKQELTEGRALALSHTYANVSISHVINLWGADFNAEGNLEAIYVTDSDANASIGMKKYKVGINAHGHVAISAKKIEGENIGAQVLGLFTLSSGKDIWQKLSLEHHHHHH
4. PRT-554 (protein) MANQEIRYSEETPKTITSVWTKGVTPPTDFIKNEDVFHAPYVANQGWYDITKTFNGKDDLLCGAATAGNMLHWWFDQNKEEIENYLKKHPEKQKINFNGEQMFDVKEAIDTKDSQTDSALFNYFKDKAFPYLSTKHLGVFPDHVIDMFINGYRLSLTNHGPTPVKDGTKDPRGGIFDAVFTRGDQTKLLTARHDFKEKTLNEISDLIKQELTEGKALGLSHTYANVRINHVINLWGADFDSEGNLEAIYVTDSDSNASIGMKKYYVGVNAAGKVAISAKEIEDDNIGAQVLGLFTLSTGQDIWEQTNLEHHHHHH
5. PRT-384 (protein) MVTSVWTKGVTPPTNFTYGEDVLHAPYVANQGWYDITKTFNGKDDLLCGAATAGNMLHWWFDQNKEQIENYLKKHPEKQKINFNGEQMFDVKEAIDTKDSQLDSKLFEYFKEKAFPNLSTKHLGVFPDHVIDMFINGYRLSLTNHGPTPVKRGSKDPRGGIFDAVFTRGDQSKLLTNRHDFKEKTLKEISDLIKQELTEGKALGISHTYANVRINHVINLWGADFDAEGNLEAIYVTDSDSNASIGMKKYFVGVNSNGKVAISAKEIEEDNIGAQVLGLFTLSTGQDIWNQTN
6. PRT-452 (protein) MVTSVWTKGVTPPANFTQGEDVFHAPYKANQGWYDITKAFDGGDDLLCGAATAGNMLHWWFDQNKDQIEAYLKEHPEKQKINFNGEQMFDVKEAIDTKDDQTNSELFNYFKEKAFPYLSTKHLGVFPDHVLDMFINGYRLSLTNHGPTPVKEGSKDPRGGIFDAVFTRGDQSKLLTSRHDLKNKTLKEISDLIKQELTEGKALALSHTYANVRINHVINLWGADFDSNGNLEAIYVTDSDSNASIGMKKYFVGVNSAGKVAISAKEIEDDNIGAQVLGLFTLSTGQDIWNQTNLEHHHHHH

Reply:
607
229
0
350
0
0
